Biological target: PRMT5-MTA (Homo sapiens)
Sequence (O14744 whole entry): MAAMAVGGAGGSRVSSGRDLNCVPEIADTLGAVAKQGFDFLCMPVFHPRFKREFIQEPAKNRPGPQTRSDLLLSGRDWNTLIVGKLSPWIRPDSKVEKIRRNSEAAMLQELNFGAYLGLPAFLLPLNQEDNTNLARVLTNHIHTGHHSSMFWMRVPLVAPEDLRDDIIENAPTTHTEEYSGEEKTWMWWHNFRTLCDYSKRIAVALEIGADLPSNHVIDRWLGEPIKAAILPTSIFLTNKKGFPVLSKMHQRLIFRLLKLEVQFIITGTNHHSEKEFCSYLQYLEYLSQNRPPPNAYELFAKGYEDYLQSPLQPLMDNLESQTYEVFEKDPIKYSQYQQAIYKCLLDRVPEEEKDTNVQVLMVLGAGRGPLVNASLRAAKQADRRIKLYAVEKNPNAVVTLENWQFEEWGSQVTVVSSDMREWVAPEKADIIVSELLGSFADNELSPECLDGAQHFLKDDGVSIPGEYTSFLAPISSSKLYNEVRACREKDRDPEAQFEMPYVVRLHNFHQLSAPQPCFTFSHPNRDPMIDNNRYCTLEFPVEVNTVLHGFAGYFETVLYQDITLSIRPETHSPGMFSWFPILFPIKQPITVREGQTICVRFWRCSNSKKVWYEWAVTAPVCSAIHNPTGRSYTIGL
Sequence (Q9BQA1 whole entry partner): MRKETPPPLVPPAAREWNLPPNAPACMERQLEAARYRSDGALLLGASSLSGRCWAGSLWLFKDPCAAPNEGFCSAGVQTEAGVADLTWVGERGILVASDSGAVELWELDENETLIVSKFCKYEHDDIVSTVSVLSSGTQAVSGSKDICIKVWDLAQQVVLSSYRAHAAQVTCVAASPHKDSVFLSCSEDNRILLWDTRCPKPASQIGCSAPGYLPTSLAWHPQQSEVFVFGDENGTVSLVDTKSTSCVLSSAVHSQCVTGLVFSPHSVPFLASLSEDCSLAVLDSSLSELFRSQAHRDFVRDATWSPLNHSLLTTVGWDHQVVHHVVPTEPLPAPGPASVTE
Test: Enzymatic inhibitory activity against PRMT5-MTA (AlphaScreen)
Type: biochemical
Conditions: read-out: IC50
Here, each record is paired with measured pIC50 data.
In simple prose, pIC50 is minus the logarithm base ten of a concentration in moles per litre.

Below are worked cases with known answers.
Molecule: Cc1cc2cc(C(=O)N(Cc3ccc(Br)cn3)N(C)c3nccc4nccnc34)ccc2nc1N
Numeric value: 8.60
//
Molecule: Cc1cc2nc(N)c3cnn(C)c3c2cc1C(=O)N1C[C@@H](C)CN1c1ncccc1F (single isomer, unassigned)
Numeric value: 8.51

Lookup: Let me know recorded pIC50 for [2H]C([2H])([2H])c1cc2cc(C(=O)N(Cc3ccc(C(F)(F)F)cn3)N(c3ncccn3)C([2H])([2H])[2H])ccc2nc1N , thanks.
Found: 8.52

Lookup: Let me know recorded pIC50 for COC1CN(C(=O)c2cc3c(cc2C)nc(N)c2cnn(C)c23)N(c2ncc(F)cc2F)C1 (stereo not drawn) , thanks.
Found: 8.30
